These measurements were taken from patent US20110269227A1.

tgt: T1, human adiponectin (R&D Systems) (human, UniProt Q15848 19-244)
T1 construct: Bought protein; also called ACRP30; GBP28
T1 sequence (looked up): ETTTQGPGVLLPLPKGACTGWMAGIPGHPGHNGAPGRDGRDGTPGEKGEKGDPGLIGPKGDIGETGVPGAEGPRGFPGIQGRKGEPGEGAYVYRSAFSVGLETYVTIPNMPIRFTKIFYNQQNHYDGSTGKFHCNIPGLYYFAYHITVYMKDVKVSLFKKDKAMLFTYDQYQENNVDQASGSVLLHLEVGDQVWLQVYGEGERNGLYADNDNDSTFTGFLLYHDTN
assay_explanation: peptide spot on cellulose membrane, sandwich enzyme immunoassay with HRP-tagged anti-adiponectin antibody, fluorescence
Ends that are not written are not given here. PEG (amino-terminated) = not defined here; cellulose membrane = not defined here
readout_kind: binding result

binder	meas_value
MGSFVPY-{PEG (amino-terminated)-cellulose membrane} (reading uncertain, also called MGSFVPY) [peptide having the amino-acid sequence represented by SEQ ID NO: 18]	binds
FLGLGLSGVVPT-{PEG (amino-terminated)-cellulose membrane} (reading uncertain, Spot-synthesised on a cellulose membrane) [peptide consisting of the amino-acid sequence represented by SEQ ID NO: 12]	binds
ILTMLRPNMYF-{PEG (amino-terminated)-cellulose membrane} (reading uncertain, Spot-synthesised on a cellulose membrane) [peptide consisting of the amino-acid sequence represented by SEQ ID NO: 5]	binds
